Record form. Attribute: IC50. Fill in for each entry.
- tested.on: ERK2 (Homo sapiens (Human))
- assay.summary: Active ERK1 and ERK2 Kinase Assay (Mobility Shift Assay)
- Assay type: biochemical
- run.conditions: activated ERK2, Mobility Shift Assay

Enquiry: Can you look up the measured IC50 of `Cn1cnc(-c2ccc(C3=CCN(C(=O)CN4CC[C@]5(CCN(c6ccc7[nH]nc(-c8ccc(F)cn8)c7c6)C5=O)C4)CC3)cc2)n1` for me?
Return: ≤ 0.05 µM

Enquiry: I would be grateful if you could share the reported IC50 for CC1CC(c2n[nH]c3ccc(N4CCC5(CCN(CC(=O)N6CC=C(c7ccc(-c8nn(C)c(=O)o8)cc7)CC6)C5)C4=O)nc23)CC(C)O1 (stereo not drawn) .
Return: ≤ 0.05 µM

Enquiry: Please look up its IC50: `Cn1cnc(-c2cnc(C3=CCN(C(=O)CN4CC[C@]5(CCN(c6ccc7[nH]nc(C8CCOCC8)c7n6)C5=O)C4)CC3)s2)n1`
Return: ≤ 0.05 µM

Enquiry: Record request: IC50 value, item `COc1ccc(-c2n[nH]c3ccc(N4CC[C@]5(CCN(CC(=O)N6CC=C(c7ncc(-c8ncn(C)n8)s7)CC6)C5)C4=O)nc23)cn1`
Return: ≤ 0.05 µM

Enquiry: // IC50 lookup, key: `CN1CCC(c2n[nH]c3ccc(N4CC[C@]5(CCN(CC(=O)N6CC=C(c7ccc(-c8ncn(C)n8)cc7)CC6)C5)C4=O)cc23)CC1`
Return: ≥ 0.25 µM

Enquiry: Recorded IC50 for `CC(C)Oc1ccc(-c2n[nH]c3ccc(N4CC[C@]5(CCN(CC(=O)N6CCN(c7ccc(-c8ncn(C)n8)cc7)CC6)C5)C4=O)nc23)cn1` , please?
Return: ≤ 0.05 µM

====

- tested.on: ERK2 (Homo sapiens (Human))
- assay.summary: Active ERK1 and ERK2 Kinase Assay (Mobility Shift Assay)
- run.conditions: activated ERK2, Mobility Shift Assay
Give IC50 for every item shown.

Enquiry: Give its IC50 value. Item: `Cc1cc(-c2n[nH]c3ccc(N4CC[C@]5(CCN(CC(=O)N6CC=C(c7ccc(-c8ncn(C)n8)cc7)CC6)C5)C4=O)nc23)ccn1`
Return: ≤ 50 nM

Enquiry: Requested field: IC50. Item: `CNC(=O)c1ccc(-c2n[nH]c3ccc(N4CC[C@]5(CCN(CC(=O)N6CC=C(c7ccc(-c8ncn(C)n8)cc7)CC6)C5)C4=O)cc23)cn1`
Return: ≤ 50 nM

Enquiry: May I ask what IC50 has been recorded for `Cn1cnc(-c2ccc(C3=CCN(C(=O)CN4CC[C@]5(CCN(c6ccc7[nH]nc(-c8ccc(C#N)cn8)c7c6)C5=O)C4)CC3)cc2)n1` ?
Return: ≤ 50 nM

====

- tested.on: ERK2 (Homo sapiens (Human))
- assay.summary: Active ERK1 and ERK2 Kinase Assay (Mobility Shift Assay)
- Format: biochemical
- run.conditions: activated ERK2, Mobility Shift Assay
Could you please report measured IC50 for the items listed next?

Enquiry: Find IC50 (ERK2 (Homo sapiens (Human))) for the entry Cn1cnc(-c2ccc(C3=CCN(C(=O)CN4CC[C@]5(CCN(c6ccc7[nH]nc(-c8cnc(C#N)c(Cl)c8)c7c6)C5=O)C4)CC3)cc2)n1 [Example 9]
Return: ≤ 0.05 µM

Enquiry: Please provide the recorded IC50 for CC(C)Oc1ccc(-c2n[nH]c3ccc(N4CC[C@]5(CCN(CC(=O)N6CC=C(c7ccc(-c8ncn(C)n8)cc7)CC6)C5)C4=O)c(F)c23)cn1 [Example 1] , tested on ERK2 (Homo sapiens (Human)).
Return: ≥ 0.25 µM

Enquiry: Please tell me: IC50 of Cn1cnc(-c2ccc(C3=CCN(C(=O)CN4CC[C@]5(CCN(c6ccc7[nH]nc(N8CCC9(CC8)COC9)c7n6)C5=O)C4)CC3)cc2)n1 [Example 42] , system ERK2 (Homo sapiens (Human))?
Return: ≥ 0.25 µM

Enquiry: Item: Cn1nc(-c2ccc(C3=CCN(C(=O)CN4CC[C@]5(CCN(c6ccc7[nH]nc(-c8ccc(C#N)c(Cl)c8)c7c6)C5=O)C4)CC3)cc2)oc1=O [Example 14] Test system: ERK2 (Homo sapiens (Human)) Read-out: IC50 Value: ?
Return: ≤ 0.05 µM

Enquiry: Value wanted: IC50 (ERK2 (Homo sapiens (Human))) of entry Cn1cnc(-c2ccc(C3=CCN(C(=O)CN4CC[C@]5(CCN(c6ccc7[nH]nc(-c8ccc(Cl)cc8F)c7n6)C5=O)C4)CC3)cc2)n1 [Example 69]
Return: ≤ 0.05 µM

Enquiry: Give recorded IC50 with ERK2 (Homo sapiens (Human)) for the following compound: COc1ccc(-c2n[nH]c3ccc(N4CC[C@]5(CCN(CC(=O)N6CC=C(c7ccc(-c8nn(C)c(=O)o8)cc7)CC6)C5)C4=O)cc23)cn1 [Example 19]
Return: ≤ 0.05 µM

====

What pIC50 was measured for each of the following?
- tested.on: ERK2 (Homo sapiens (Human), UniProt P28482)
- Sequence (P28482 whole entry): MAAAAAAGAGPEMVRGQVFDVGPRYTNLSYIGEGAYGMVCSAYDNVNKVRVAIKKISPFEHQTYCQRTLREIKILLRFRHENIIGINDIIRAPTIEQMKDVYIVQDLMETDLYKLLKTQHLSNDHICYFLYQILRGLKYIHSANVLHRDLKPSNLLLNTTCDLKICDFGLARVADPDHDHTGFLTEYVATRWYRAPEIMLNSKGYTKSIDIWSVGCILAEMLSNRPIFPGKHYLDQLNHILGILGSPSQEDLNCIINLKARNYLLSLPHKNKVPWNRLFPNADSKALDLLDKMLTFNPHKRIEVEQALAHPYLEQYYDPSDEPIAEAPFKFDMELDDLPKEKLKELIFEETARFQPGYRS
- assay.summary: Active ERK1 and ERK2 Kinase Assay (Mobility Shift Assay)
- run.conditions: activated ERK2, Mobility Shift Assay
pIC50: −log10 of the molar value.

Enquiry: Field request: pIC50 | item: Cn1cnc(-c2ccc(C3=CCN(C(=O)CN4CC[C@]5(CCN(c6ccc7[nH]nc(-c8cnc(C#N)c(C(F)(F)F)c8)c7c6)C5=O)C4)CC3)cc2)n1 [Example 10]
Return: ≥ 7.30

Enquiry: Tell me the measured pIC50 of CC(C)Oc1ccc(-c2n[nH]c3ccc(N4CC[C@]5(CCN(CC(=O)N6CC=C(c7ccc(-c8ncn(CCO)n8)cc7)CC6)C5)C4=O)nc23)cn1 [Example 89] , please.
Return: ≥ 7.30

Enquiry: Give its pIC50 value. Item: Cn1nc(-c2ccc(C3=CCN(C(=O)CN4CCC5(CCN(c6ccc7[nH]nc(C8CCOCC8)c7n6)C5=O)C4)CC3)cc2)oc1=O (stereo not drawn) [Example 23]
Return: ≥ 7.30

====

Give measured IC50 for each item. Keep answers brief.
- tested.on: ERK2 (Homo sapiens (Human))
- assay.summary: Active ERK1 and ERK2 Kinase Assay (Mobility Shift Assay)
- run.conditions: activated ERK2, Mobility Shift Assay

Enquiry: Given `CC(C)Oc1ccc(-c2n[nH]c3ccc(N4CC[C@]5(CCN(CC(=O)N6CCC(c7ccc(-c8ncn(C)n8)cc7)CC6)C5)C4=O)nc23)cn1` , state its recorded IC50.
Return: ≤ 50 nM

Enquiry: Entry under review: `CC(C)Sc1ccc(-c2n[nH]c3ccc(N4CC[C@]5(CCN(CC(=O)N6CC=C(c7ccc(-c8ncn(C)n8)cc7)CC6)C5)C4=O)nc23)cn1` . Reported IC50?
Return: ≤ 50 nM

Enquiry: Any idea what its IC50 is? The molecule is `CC(C)Oc1ccc(-c2n[nH]c3ccc(N4CC[C@]5(CCN(CC(=O)N6CC=C(c7ncc(-c8ncn(C)n8)s7)CC6)C5)C4=O)nc23)cn1`
Return: ≤ 50 nM

Provenance of the data: patent US10934304B2
